Where do the numbers come from? From PubChem BioAssay (NCI).

# Tested on: HT29 colon
# PROCEDURE_DETAILS: NCI tumour cell line growth inhibition, 48 h
TGI by entry:

[ask] Identify TGI associated with the compound "COc1ccc(-c2oc3cc(OC)c(OC)c(OC)c3c(=O)c2OC)cc1OC"
[reply] > 100 µM

[ask] Please look at this compound and report its TGI: "COc1cc(Nc2ncc3c(C)nc(-c4cccc(Oc5ccccc5)c4)n3n2)cc(OC)c1OC"
[reply] 16.3 µM

[ask] Please report TGI for the following compound: COc1ccc(N=Nc2c(C)c(C#N)c(=S)n(C3OC(COC(C)=O)C(OC(C)=O)C(OC(C)=O)C3OC(C)=O)c2-c2ccccc2)cc1 (stereo not given)
[reply] > 100 µM

[ask] Note down TGI recorded for "CCOC(=O)/C=C(\C(=O)OCC)n1cnc2c(N)ncnc21"
[reply] 23.1 µM

[ask] Please supply the value of reported TGI for the item COc1cc(S(=O)(=O)Nc2ccc(-c3csc(N4C(=O)C(C)SC4c4ccccc4O)n3)cc2)ccc1Cl (stereo not given)
[reply] > 100 µM

====

# Tested on: M14 melanoma
# PROCEDURE_DETAILS: NCI tumour cell line growth inhibition, 48 h; in the data active means GI50 below about 0.43 µM; inactive means the rest
Outcome (select one): active, inactive

Example results:
INSERT INTO assay_data (compound, class_assignment) VALUES
  ('CCOCC(=O)N[C@H]1CCc2cc(OC(=O)COCC)c(OC)c(OC)c2-c2ccc(SC)c(=O)cc21', 'active'),
  ('O=C(CC(O)c1ccncc1)c1ccccc1 (stereo unspecified)', 'inactive'),
  ('O=C(Nc1cccc([N+](=O)[O-])c1)c1ccc2ccccc2c1O', 'inactive');

[ask] Identify the outcome logged in this assay for the compound shown: "CCCCCCCCCCCCCCCCOC(=O)c1c(C)[nH]c(/C=C2\N=C(c3ccc[nH]3)C=C2OC)c1C"
[reply] active

[ask] Assay outcome for "Cc1ccc(/C=C/C(=O)c2ccc(N)cc2)c(C)c1" : what was it?
[reply] inactive

[ask] What call does the record list for "CO/N=C(\COc1ccc2c(c1)oc(=O)c1cc(OC)ccc12)c1cccc(OC)c1" ?
[reply] inactive

[ask] Could you check what this test reported for "O=C1Nc2ccccc2/C1=C/c1cn(C(=O)c2c(Cl)cccc2Cl)c2ccccc12" ?
[reply] inactive

[ask] Test call, this compound: "c1ccc2c(-c3nc4ccccc4[nH]3)cccc2c1"
[reply] inactive

[ask] Answer briefly: the call reported for "COc1ccc(Cn2cc3c(c2-c2ccc(O)cc2)CCc2cnoc2-3)cc1" in this assay.
[reply] active

====

# Tested on: OVCAR-4 ovarian
# PROCEDURE_DETAILS: NCI tumour cell line growth inhibition, 48 h; in the data active means GI50 below about 0.43 µM; inactive means the rest
Choose the fitting class; nothing outside active, inactive is accepted.

// known answers, use as guide
INSERT INTO assay_data (compound, experimental_system, class_assignment) VALUES
  ('Cc1ccc(/C=C/C(=O)c2ccc(N)cc2)c(C)c1', 'OVCAR-4 ovarian', 'inactive'),
  ('COc1ccc(Cn2cc3c(c2-c2ccc(O)cc2)CCc2cnoc2-3)cc1', 'OVCAR-4 ovarian', 'inactive'),
  ('COc1cc(OC)c2cc(C(=O)O)c(=O)oc2c1', 'OVCAR-4 ovarian', 'inactive');

[ask] Just curious, what result did "COc1ccc(Cn2cnc3cc(C(=O)Nc4cccc5ccccc45)ccc32)c(OC)c1" get here?
[reply] active

[ask] What outcome does the record of this test show for COc1cc(C2CC(c3ccc(Nc4ccnc5cc(Cl)ccc45)cc3)=NN2C=O)cc(OC)c1OC (centres undefined) ?
[reply] inactive

[ask] For this compound, state the assay outcome: "CCC[CH2][Sn]1([CH2]CCC)[O]C(=O)c2cccc(OC)c2[O]1"
[reply] inactive

[ask] Write down the call the test reported for this compound. Item: "CC1(C)N=C(N)N=C(N)N1c1ccc(OCC(=O)N2CCOCC2)c(Cl)c1"
[reply] inactive

[ask] Which outcome was assigned to "CC(C)(C)c1cn2cccc(C(=O)N3CCN(CC(=O)Nc4ccc(Cl)cc4C(=O)c4ccccc4Cl)CC3)c2n1" in this test?
[reply] inactive

[ask] Test call for this compound, please: "COc1ccc2c(c1)C(=O)/C(=C/c1ccc([N+](=O)[O-])s1)O2"
[reply] active

====

# Tested on: MDA-MB-231 breast
# PROCEDURE_DETAILS: NCI tumour cell line growth inhibition, 48 h
Listed here are compounds together with their documented GI50.

Known results for compounds:
INSERT INTO assay_data (compound, experimental_system, readout_kind, reading) VALUES
  ('CCSc1nc(N2CCCCC2)c2cn[nH]c2n1', 'MDA-MB-231 breast', 'GI50', '11.6 µM'),
  ('CCCCCCCCCCCCCCCCOC(=O)c1c(C)[nH]c(/C=C2\N=C(c3ccc[nH]3)C=C2OC)c1C', 'MDA-MB-231 breast', 'GI50', '0.789 µM');

[ask] Indicate the recorded GI50 value for this compound: "O=C(Nc1cccc([N+](=O)[O-])c1)c1ccc2ccccc2c1O"
[reply] 22.2 µM

====

Quick list: TGI per entry.
# Tested on: UACC-257 melanoma
# PROCEDURE_DETAILS: NCI tumour cell line growth inhibition, 48 h

INSERT INTO measurements (compound, reading) VALUES
  ('c1cc2cc(c1)CN1CCNCCN(CCNCC1)Cc1cccc(c1)CN1CCNCCN(CCNCC1)C2', '> 100 µM'),
  ('c1ccc2c(-c3nc4ccccc4[nH]3)cccc2c1', '84.4 µM'),
  ('O=C(N1CCC(CN=c2cc3n(-c4ccc(Cl)cc4)c4ccccc4nc-3cc2Nc2ccc(Cl)cc2)CC1)N1CC1', '1.89 µM'),
  ('O=c1oc2cc(O)ccc2cc1-c1nc2ccccc2s1', '58.2 µM'),
  ('O=C1CCCC(=O)C1=C(O)CCCCCCCCCCc1ccccc1', '> 100 µM'),
  ('N#CCC12CC=CCC1=C(O)C(=O)c1ccc(O)cc12 (stereo not given)', '> 100 µM'),
  ('COc1cc(-n2cc(-c3ccc(F)cc3)[nH]c2=S)cc(OC)c1OC', '> 100 µM'),
  ('COc1ccc(-c2oc3cc(OC)c(OC)c(OC)c3c(=O)c2OC)cc1OC', '> 100 µM'),
  ('Cc1ccc([N+](=O)[O-])cc1NC(=O)C(=O)Cc1cc(=O)oc2cc(O)ccc12', '> 100 µM'),
  ('CC(=O)O[C@H]1[C@@H](OC2CCCC2(c2ccccc2)c2ccccc2)O[N+]([O-])=C[C@@]12COCc1cc3c(cc12)OCO3 (stereo not given in full)', '> 100 µM');

[ask] Give the value of TGI reported for the following: "CCOP(=O)(OCC)/C(C#N)=C/c1ccc[nH]1"
[reply] > 100 µM

[ask] Given "Oc1ccccc1Nc1nc2ccccc2c2occc12" , respond with its TGI.
[reply] 29.6 µM

[ask] Provide measured TGI value, entry: CC1CC(=O)C(CC(=O)O)C1C(C(=O)C(=O)Nc1c(C#N)cccc1[N+](=O)[O-])[N+](=O)[O-] (stereo not given)
[reply] > 100 µM

[ask] Answer with the recorded TGI for the compound listed here: Cn1c(=O)c2[nH]c(C3CC(=O)CC(c4nc5c([nH]4)c(=O)n(C)c(=O)n5C)N3)nc2n(C)c1=O (stereo not given)
[reply] > 100 µM

[ask] Give the measured TGI for "Cn1c(=O)c2c(ncn2CCSS(=O)(=O)O)n(C)c1=O"
[reply] > 100 µM

[ask] Provide measured TGI value, entry: "O=C1NC(N/N=C/c2ccccc2)=N/C1=C\c1cccs1"
[reply] > 100 µM

====

Readings of TGI for the listed compounds
# Tested on: SNB-75 CNS
# PROCEDURE_DETAILS: NCI tumour cell line growth inhibition, 48 h
Write the value in µM as a bare number.

// worked examples, TGI included
INSERT INTO assay_data (compound_structure_string, experimental_system, reading) VALUES
  ('COc1ccc(NC(=O)COC(=O)c2cccc3c(=O)c4ccccc4[nH]c23)cc1', 'SNB-75 CNS', 41.2),
  ('O=C(Nc1ccccc1)Nn1c(-c2cccs2)nc2ccc(I)cc2c1=O', 'SNB-75 CNS', 25.6),
  ('O=C(N/N=c1/ccoc2cccnc12)N1CCN(c2ncccn2)CC1', 'SNB-75 CNS', 9.33),
  ('NC(N)=NS(=O)(=O)c1ccc(Nc2c3ccccc3nc3c(C(=O)NC(CO)(CO)CO)cccc23)cc1', 'SNB-75 CNS', 18.7);

Next compound, please.
[ask] Param request: TGI | system SNB-75 CNS | item "C=C(C)[C@@H]1CC[C@]2(C(=O)O)CC[C@]3(C)[C@H](CC[C@@H]4[C@@]5(C)C[C@@H](CC#Cc6ccc(Br)cc6)C(=O)C(C)(C)[C@@H]5CC[C@]43C)[C@@H]12"
[reply] 34.6

====

# System: SF-295 CNS
# PROCEDURE_DETAILS: NCI tumour cell line growth inhibition, 48 h; in the data active means GI50 below about 0.43 µM; inactive means the rest
Respond only with the outcome that fits, drawn from active, inactive

Take a look at these entries with their results.
INSERT INTO measurements (compound, class_assignment) VALUES
  ('Oc1ccccc1Nc1nc2ccccc2c2occc12', 'inactive'),
  ('CCCCCCCCCCCCCCCCOC(=O)c1c(C)[nH]c(/C=C2\N=C(c3ccc[nH]3)C=C2OC)c1C', 'inactive');

[ask] I would be grateful if you could indicate the recorded call for C/C1=C\CC[C@@]2(C)O[C@@H]2C[C@@H]2[C@H](C/C(C)=C/CC1)OC(=O)C21CCN=N1 (some centres not stated) .
[reply] inactive

[ask] Which outcome was entered for the compound "COc1cc2c(cc1OCCCCCn1c(-c3ccco3)nc3ccccc31)N=C[C@@H]1CCCN1C2=O" in this test?
[reply] active
